System: RAW264.7
Experiment: Anti-inflammatory activity in mouse RAW264.7 cells assessed as inhibition of LPS-induced NO production by measuring NO level at 10 ug/ml preincubated for 1 hr followed by LPS-stimulation measured after 24 hrs by Griess assay
Format: functional
Recorded Activity values for a group of compounds are listed next.

Ask: Activity for O=C(N/N=C/c1cccs1)N1CCc2ncnc(Nc3ccc(F)c(Cl)c3)c2C1 ?
Reply: <1.9 µM

Ask: What Activity value was documented for this compound, O=C(N/N=C/c1cccs1)N1CCc2ncnc(Nc3cccc(C(F)(F)F)c3)c2C1 ?
Reply: <1.9 µM

Ask: Reported Activity, compound O=C(N/N=C/c1ccccc1)N1CCc2ncnc(Nc3cccc(Br)c3)c2C1 : ____
Reply: <1.9 µM

Ask: Consider the compound O=C(N/N=C/c1ccc(C(F)(F)F)cc1)N1CCc2ncnc(Nc3ccc(F)c(Cl)c3)c2C1 and give its measured Activity.
Reply: 0.79 µM

Ask: What measured Activity goes with Cc1ccc(/C=N/NC(=O)N2CCc3ncnc(Nc4cccc(C(F)(F)F)c4)c3C2)cc1 ?
Reply: 1.05 µM

Ask: # lookup: Activity of CSc1ccc(/C=N/NC(=O)N2CCc3ncnc(Nc4ccc(F)c(Cl)c4)c3C2)cc1
Reply: <1.9 µM

Ask: What value of Activity has been reported for the following compound? O=C(N/N=C/c1cccs1)N1CCc2ncnc(Nc3cccc(Br)c3)c2C1
Reply: <1.9 µM
